Assay procedure: Biodistribution in ICR mice after an iv injection
Format: in vivo
Applied conditions: Muscle, 30 min after iv injection
Reported metric: % dose/g (% dose/g)

CN(C)c1ccc(-c2ccc3nc(OCCOCCOCC[18F])ccc3c2)cc1 [[^18F]32a] :: 1.20

[I] CNc1ccc(-c2ccc3cc(OCCOCCOCCF)ccc3c2)cc1
[II] CNc1ccc2cc(-c3ccc(OCCOCCOCC[18F])cc3)ccc2c1 [[^18F]19a]
Larger number for % dose/g: I , or II ? Kindly state the label of the option you pick.
I
(I: 1.27 % dose/g, II: 0.75 % dose/g)

====

Assay procedure: Biodistribution in ICR mice after an iv injection
Type: in vivo
Applied conditions: Brain, 2 hr after iv injection
Reported metric: % dose/g (% dose/g)

// known answers, use as guide
CN(C)c1ccc(-c2ccc3nc(OCCOCCOCC[18F])ccc3c2)cc1 [[^18F]32a] :: 1.45
CNc1ccc(-c2ccc3nc(OCCOCCOCC[18F])ccc3c2)cc1 [[^18F]34a] :: 1.90

[I] CNc1ccc(-c2ccc3cc(OCCOCCOCCF)ccc3c2)cc1
[II] CNc1ccc2cc(-c3ccc(OCCOCCOCC[18F])cc3)ccc2c1 [[^18F]19a]
Consider entries I and II . Which has the numerically lower % dose/g? Kindly state the label of the option you pick.
II
(II: 0.92 % dose/g, I: 1.91 % dose/g)
